# tgt: feline FcRn (FCN-F82W3, Acrobiosystems) (feline)
# method.notes: SPR Carterra, IgG coupled, pH 6.0
Below, each entry is listed with its recorded kon.
Answer shape: numeric part, then the unit.

The following binders have reported results that may help.
| binder | kon |
| --- | --- |
| anti-NGF feline IgG1a, Fc variant R301L, E380V, T437L (antibody, part only; not given: anti-NGF variable domains, light chain, not shown: another chain or arm of the molecule; small tags and cut ends) Fc: PPEMLGGPSIFIFPPKPKDTLSISRTPEVTCLVVDLGPDDSDVQITWFVDNTQVYTAKTSPREEQFNSTYLVVSVLPILHQDWLKGKEFKCKVNSKSLPSPIERTISKAKGQPHEPQVYVLPPAQEELSRNKVSVTCLIKSFHPPDIAVVWEITGQPEPENNYRTTPPQLDSDGTYFVYSKLSVDRSHWQRGNTYTCSVSHEALHSHHLQKSLTQSPGK | 1.15e+06 M⁻¹ s⁻¹ |
| anti-NGF feline IgG1a, Fc variant L309E (antibody, part only; not given: anti-NGF variable domains, light chain, not shown: another chain or arm of the molecule; small tags and cut ends) Fc: PPEMLGGPSIFIFPPKPKDTLSISRTPEVTCLVVDLGPDDSDVQITWFVDNTQVYTAKTSPREEQFNSTYRVVSVLPIEHQDWLKGKEFKCKVNSKSLPSPIERTISKAKGQPHEPQVYVLPPAQEELSRNKVSVTCLIKSFHPPDIAVEWEITGQPEPENNYRTTPPQLDSDGTYFVYSKLSVDRSHWQRGNTYTCSVSHEALHSHHTQKSLTQSPGK | 406000 M⁻¹ s⁻¹ |
| anti-NGF feline IgG1a, Fc variant S434Y, L309E (antibody, part only; not given: Anti-NGF variable domains, not shown: another chain or arm of the molecule; small tags and cut ends) Fc: PPEMLGGPSIFIFPPKPKDTLSISRTPEVTCLVVDLGPDDSDVQITWFVDNTQVYTAKTSPREEQFNSTYRVVSVLPIEHQDWLKGKEFKCKVNSKSLPSPIERTISKAKGQPHEPQVYVLPPAQEELSRNKVSVTCLIKSFHPPDIAVEWEITGQPEPENNYRTTPPQLDSDGTYFVYSKLSVDRSHWQRGNTYTCSVSHEALHYHHTQKSLTQSPGK | 1.13e+06 M⁻¹ s⁻¹ |

Then this binder:
Could you share which kon value was measured for anti-NGF feline IgG1a, Fc variant S252Y, Q311L (antibody, part only; not given: anti-NGF variable domains, not shown: another chain or arm of the molecule; small tags and cut ends) Fc: PPEMLGGPSIFIFPPKPKDTLYISRTPEVTCLVVDLGPDDSDVQITWFVDNTQVYTAKTSPREEQFNSTYRVVSVLPILHLDWLKGKEFKCKVNSKSLPSPIERTISKAKGQPHEPQVYVLPPAQEELSRNKVSVTCLIKSFHPPDIAVEWEITGQPEPENNYRTTPPQLDSDGTYFVYSKLSVDRSHWQRGNTYTCSVSHEALHSHHTQKSLTQSPGK ? 740000 M⁻¹ s⁻¹
